Assay: Chemical stability in aqueous solutions, degradation followed by HPLC
Format: physicochemical
Conditions: aqueous acetonitrile solution in HPLC vials, pH 6.7, 1:1 acetonitrile:water, 21 °C, pH 6.7; extrapolated from plots of peak area versus time; read-out: Half-life (t1/2, h) ACN:Water, 1:1 (converted)
Test readout: half-life at 200 μg ml^–1 (h)

Please review the entries below; each comes with its answer.
Compound	Unit string	Endpoint value
CC1=C[C@H](Oc2ccc(Br)cc2)N(C(=O)OC(C)(C)C)C1=O (racemic) [rac-8]	h	1080
CC1=C[C@H](O/C=C2\Cc3c(n(C)c4ccccc34)C2=O)NC1=O (racemic) [rac-5]	h	24

a: CC1=C[C@H](O/C=C2/C(=O)O[C@@H]3c4ccccc4C[C@H]23)N(C(=O)OC(C)(C)C)C1=O (racemic) [rac-1]
b: CC1=C[C@H](O/C=C2/C(=O)O[C@H]3c4ccccc4C[C@@H]23)NC1=O (racemic) [rac-4]
Which shows the larger half-life at 200 μg ml^–1 value: a or b ? Response format: the label of the selected entry.
a
(a: 720 h, b: 4.4 h)

Just for reference, paper PMC5913603 is where these values come from.
